Target: human NaP2b (SLC34A2) (Homo sapiens)
Construct: host or cells: HEK293
Sequence (O95436 whole entry): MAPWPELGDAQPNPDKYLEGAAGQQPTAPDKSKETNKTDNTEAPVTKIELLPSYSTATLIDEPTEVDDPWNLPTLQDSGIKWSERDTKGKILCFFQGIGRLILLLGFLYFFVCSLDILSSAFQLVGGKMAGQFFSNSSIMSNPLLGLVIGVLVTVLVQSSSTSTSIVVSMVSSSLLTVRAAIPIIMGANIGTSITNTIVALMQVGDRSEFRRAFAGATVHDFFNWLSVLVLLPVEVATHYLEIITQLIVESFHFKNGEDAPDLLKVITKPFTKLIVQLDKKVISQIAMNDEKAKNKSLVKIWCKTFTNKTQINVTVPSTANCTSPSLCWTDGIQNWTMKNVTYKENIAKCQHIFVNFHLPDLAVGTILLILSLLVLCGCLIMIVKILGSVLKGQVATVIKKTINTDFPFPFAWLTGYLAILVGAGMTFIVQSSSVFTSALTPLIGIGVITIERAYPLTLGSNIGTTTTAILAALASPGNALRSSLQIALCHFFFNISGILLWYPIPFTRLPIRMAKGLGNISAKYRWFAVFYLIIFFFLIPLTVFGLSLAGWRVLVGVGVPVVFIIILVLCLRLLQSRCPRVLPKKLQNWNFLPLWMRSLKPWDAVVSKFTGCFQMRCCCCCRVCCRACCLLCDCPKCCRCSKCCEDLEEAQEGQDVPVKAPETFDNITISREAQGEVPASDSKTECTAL
Test: Inhibition of NaP2b-mediated Pi (33P) uptake in transfected HEK293 cells, human NaP2b
Format: cell-based
Settings: read-out: pIC50 range for human NaP2b (converted)
Each entry below carries its reported IC50.
measurementLabel: IC50

>>> value("CCN(CC)c1ccc(NC(=O)c2cccc(COCCOCCOCCOCCOCCOCCOC(=O)N3CCC(CCOCCO)CC3)c2)c(-c2cc(C(=O)NCc3cccc(C(F)(F)F)c3)ccn2)c1")
"< 1 µM"
>>> value("CCN(CC)c1ccc(NC(=O)c2cccc(C#CCOCCOCCOCCOCCO)c2)c(-c2cc(C(=O)NCc3cccc(C(F)(F)F)c3)ccn2)c1")
"1 to 7.94 µM"
>>> value("CCN(CC)c1ccc(NC(=O)c2cccc(CCCOCCOCCOCCOCCOCCOCCC(=O)O)c2)c(-c2cc(C(=O)N[C@H]3CCCc4ccccc43)ccn2)c1")
"< 1 µM"
>>> value("O=C(NCc1cccc(C(F)(F)F)c1)c1ccnc(-c2cc(N3CCCCC3)ccc2NC(=O)c2cccc(CSc3ccc(C(=O)O)c(Br)c3)c2)c1")
"1.26 µM"
>>> value("CCN(CC)c1ccc(NC(=O)c2cccc(C(=O)N(C)CCN3CCN(C(=O)COCCOCCOCCOCCOCCOCCOCCOC)CC3)c2)c(-c2cc(C(=O)N[C@H]3CCCc4ccccc43)ccn2)c1")
"1 to 7.94 µM"
>>> value("CN(CCN1CCNC(=O)C1)C(=O)c1cccc(C(=O)Nc2ccc(N3CCCCC3)cc2-c2cc(C(=O)N[C@H]3CCCc4ccccc43)ccn2)c1")
"< 1 µM"
>>> value("CN(CCN1CCOCC1)C(=O)c1cccc(C(=O)Nc2ccc(N3CCCCC3)cc2-c2cc(C(=O)NCc3cccc(C(F)(F)F)c3)ccn2)c1")
"1 to 7.94 µM"
>>> value("O=C(O)CCOCCOCCOCCNC(=O)c1cccc2c1ccn2Cc1cccc(C(=O)Nc2ccc(N3CCCCC3)cc2-c2cc(C(=O)N[C@H]3CCCc4ccccc43)ccn2)c1")
"< 1 µM"
>>> value("CN(CCN1CCCN(C(=O)OC(C)(C)C)CC1)C(=O)c1cccc(C(=O)Nc2ccc(N3CCCCC3)cc2-c2cc(C(=O)N[C@H]3CCCc4ccccc43)ccn2)c1")
"< 1 µM"
>>> value("CCN(CC)c1ccc(NC(=O)c2cccc(CCCOCCOCCOCCOCCNS(=O)(=O)c3ccc(CCC(=O)O)cc3)c2)c(-c2cc(C(=O)NCc3cccc(C(F)(F)F)c3)ccn2)c1")
"< 1 µM"
>>> value("CN(CCOCCOCCOCCC(=O)O)C(=O)Cc1cccc(SCc2cccc(C(=O)Nc3ccc(N4CCCCC4)cc3-c3cc(C(=O)NCc4cccc(C(F)(F)F)c4)ccn3)c2)c1")
"1 to 7.94 µM"

###

IC50: recorded values
Biological target: rat NaP2b (SLC34A2) (Rattus norvegicus)
Construct: host or cells: HEK293
Sequence (Q9JJ09 whole entry): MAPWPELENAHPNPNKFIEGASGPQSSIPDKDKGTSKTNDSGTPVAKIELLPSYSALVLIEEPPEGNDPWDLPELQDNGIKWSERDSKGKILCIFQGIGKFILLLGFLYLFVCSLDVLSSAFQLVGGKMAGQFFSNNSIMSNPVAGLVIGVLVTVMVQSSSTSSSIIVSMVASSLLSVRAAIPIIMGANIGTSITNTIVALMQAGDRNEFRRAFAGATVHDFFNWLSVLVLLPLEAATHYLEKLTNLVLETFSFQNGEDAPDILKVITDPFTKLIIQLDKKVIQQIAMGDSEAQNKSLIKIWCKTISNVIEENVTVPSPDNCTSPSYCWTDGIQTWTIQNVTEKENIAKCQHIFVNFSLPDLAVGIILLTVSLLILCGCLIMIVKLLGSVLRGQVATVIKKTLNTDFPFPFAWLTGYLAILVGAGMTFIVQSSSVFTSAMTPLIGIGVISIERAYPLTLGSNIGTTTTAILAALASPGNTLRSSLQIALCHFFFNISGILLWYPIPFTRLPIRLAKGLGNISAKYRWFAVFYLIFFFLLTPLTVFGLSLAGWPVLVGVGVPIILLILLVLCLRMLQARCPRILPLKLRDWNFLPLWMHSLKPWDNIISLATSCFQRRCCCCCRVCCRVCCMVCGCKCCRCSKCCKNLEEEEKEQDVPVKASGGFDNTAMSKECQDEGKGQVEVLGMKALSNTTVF
Test: Inhibition of NaP2b-mediated Pi (33P) uptake in transfected HEK293 cells, rat NaP2b
Format: cell-based
Details: 33P Pi uptake, 0.1 mM phosphate, value given as pIC50 range
measurementLabel: IC50

>>> value("CCN(CC)c1ccc(NC(=O)c2cccc(CCCOCCOCCOCCOCCNS(=O)(=O)c3ccc(CCC(=O)O)cc3)c2)c(-c2cc(C(=O)N[C@H]3CCCc4ccccc43)ccn2)c1 [Example 320]")
"< 1 µM"
>>> value("CN(Cc1cccc(C(=O)O)c1)C(=O)c1cccc(C(=O)Nc2ccc(N3CCCCC3)cc2-c2cc(C(=O)NCc3cccc(C(F)(F)F)c3)ccn2)c1 [Example 4.32]")
"1 to 7.94 µM"
>>> value("O=C(O)CCOCCOCCOCCNC(=O)c1cccc2c1ccn2Cc1cccc(C(=O)Nc2ccc(N3CCCCC3)cc2-c2cc(C(=O)NCc3cccc(C(F)(F)F)c3)ccn2)c1 [Example 9.2]")
"1 to 7.94 µM"
>>> value("O=C(O)CCOCCOCCOCCNC(=O)c1cccc(SCc2cccc(C(=O)Nc3ccc(Cl)cc3-c3cc(C(=O)NCc4cccc(C(F)(F)F)c4)ccn3)c2)c1 [Example 264]")
"10 to 31.6 µM"
>>> value("CCN(CC)c1ccc(NC(=O)c2cccc(CCCOCCOCCOCCOCCOCCOCCC(=O)O)c2)c(-c2cc(C(=O)N[C@H]3CCCc4ccccc43)ccn2)c1 [Example 304]")
"< 1 µM"
